Experiment: yeast display, Sf9 membrane polyspecificity reagent, FACS + sequencing; frameworks hold sequencing errors

{"POLYMER_SEQUENCE": "QVQLVESGGGLVQAGGSLRLSCAASGYTFDVYAMGWYRQAPGTERELVAAISDSGGSTYYADSVKGRFTISRDNAKNTVYLQMNSLKPEDTAVYFCAAGYDYFYAIVSPSEYDYWGQGTQVTVSS", "polyreactivity (PSR sort gate)": "low polyreactivity"}
{"POLYMER_SEQUENCE": "QVQLVESGGGLVQAGGSLRLSCAASGSIFADYTMGWYRQAPGKERELVAAISSDDSTYYADSVKGRFTISRDNAKNTVYLQMNSLKPEDTAVYYCNDDGSIGPEEYWGQGTQVTVSS", "polyreactivity (PSR sort gate)": "low polyreactivity"}
{"POLYMER_SEQUENCE": "QVQLVESRGGLVQAGGSLRLSCAASGSTFRTYAMGWYRQAPGKERELVADITWRGGSTYYADSVKGRFTISRDNAKNTVYLQMNSLKPEDTAVYYCATDRGPEVVLYDYWGQGTQVTVSS", "polyreactivity (PSR sort gate)": "low polyreactivity"}

====

Experiment: yeast display, Sf9 membrane polyspecificity reagent, FACS + sequencing; frameworks hold sequencing errors

{"POLYMER_SEQUENCE": "QVQLVESGGGLVQAGGSLRLRCAASGIIFRGYAMGWYRPAPGKERELVAGITSGGDTNYADSVKGRFTISRDNAKNTVYVQMNSMNPEDTEGYYCATSDRRYRGRHYPFYKFDYWGQGPQVTVSS", "polyreactivity (PSR sort gate)": "low polyreactivity"}
{"POLYMER_SEQUENCE": "HVQLVESGGGLVQAGGSLRLSCAASGGIFFDNAMGWYRQGPGKERELVAAIRGDSGSTYYADSVKGRFTISRDNAKNTVYLQMNSLKPEDTAVYYCAAALRDYYPGGEYYSQYEYWGQGTQVTVSS", "polyreactivity (PSR sort gate)": "low polyreactivity"}
{"POLYMER_SEQUENCE": "QVQLVESGGGLVQAGGSLRLSCAASGLTFSPNAMGWYRQAPGKERELVAAITRSGSTTHYADSVKGRFTISRDNAKNTVYLQMNSLKPEDTAVYYCARRYYGPYDYWGQGTQVTVSS", "polyreactivity (PSR sort gate)": "high polyreactivity"}
{"POLYMER_SEQUENCE": "QVQLVESGGGLDQAGGSLRLSCAASGSIFASNAMGWYRQAPGKERELVAAINSGDSTNYADSVKGRFTISRDNAKNTVYLQMNSLKPEDTAVYYCARGLEERYDYWGQGTQVTVSS", "polyreactivity (PSR sort gate)": "low polyreactivity"}
{"POLYMER_SEQUENCE": "QVQLVESGGGLVQAGGSLRLSCAASGITFIINAMGWYRQAPGKERELVAAISWRGGNTHYADSVKGRFTISRDYAKNTVYLQLNSLKAEVTAVYYCAARVTSRRDPDQKHGYWGQGTQVTVSS", "polyreactivity (PSR sort gate)": "high polyreactivity"}

====

Assay: yeast display, Sf9 membrane polyspecificity reagent, FACS + sequencing; frameworks hold sequencing errors
EXPERIMENTAL_READOUT: polyreactivity (PSR sort gate)

{"POLYMER_SEQUENCE": "QVQLVESGGGLVQAGGSLRLSCAASGFIFYDYAMGWYRQAPGKERELVAVITRGGSTYYADSVKGRFTISRDNAKNTVYLQMNSLKPEDTAVYYCAAYWFTPGFTFDYWGQGTQVTVSS", "EXPERIMENTAL_READOUT": "polyreactivity (PSR sort gate)", "READING": "low polyreactivity"}
{"POLYMER_SEQUENCE": "QVQLVESGGGLVQEGGSLRLSCAASGSIFPLYDMGWYRQAPGKERELVAGISSGGSTNYADSVKGRFTISRDNAKNTVYLQMTSLKPEDTAVYYCAATGSSRYGYWGQGTQVTVSS", "EXPERIMENTAL_READOUT": "polyreactivity (PSR sort gate)", "READING": "low polyreactivity"}
{"POLYMER_SEQUENCE": "QVQLVESGGGLVQAGGSLRLSCAASGRTFRANTMGWYRQAPGKERELVAAINWSGGSTYYADSVKGRFTISRDNAKNTVYLQMNSLKPEDTAVYYCAKRVSVSYRKSTYDYWGQGTQVTVSS", "EXPERIMENTAL_READOUT": "polyreactivity (PSR sort gate)", "READING": "high polyreactivity"}
{"POLYMER_SEQUENCE": "QVQLVESGGGLVQAGGSLRLSCAASGITFPYYAMGWYRQAPGKERELVAAISAGGTRTYYADSVKGRFTISRDNAKNNVYLQMNSLKPEDTAVYYCAARVWPIVQNYYWGQGTQVTVSS", "EXPERIMENTAL_READOUT": "polyreactivity (PSR sort gate)", "READING": "high polyreactivity"}
{"POLYMER_SEQUENCE": "QVQLVESGGGLVQAGGSLRLSCAASGRTFGLYSMGWYRQAPGKVRELVASIDWSDDN", "EXPERIMENTAL_READOUT": "polyreactivity (PSR sort gate)", "READING": "low polyreactivity"}
{"POLYMER_SEQUENCE": "QVQLVESGGGLVQAGGRLRLSCAASGRTFGYNFMGWYRQAPGKERELVAAISSSGGSTYYADSVKGRFTISRDNGMNTVYLQMNSLKREDTAVYYCNARRGRASGMDYWGQGTQVTVSS", "EXPERIMENTAL_READOUT": "polyreactivity (PSR sort gate)", "READING": "high polyreactivity"}

====

Experiment: yeast display, Sf9 membrane polyspecificity reagent, FACS + sequencing; frameworks hold sequencing errors

{"POLYMER_SEQUENCE": "QVQLVESGGGLVQAGGSLRLSCAASGLIFGPYAMGWYRQAPGKERELDAAITSSGGSTYNADSVKGRFTISRDNAKKSVYLQMNSLKPEDTAVYYCAARGSPRYYARYNYWGQGTQVTVSS", "polyreactivity (PSR sort gate)": "low polyreactivity"}
{"POLYMER_SEQUENCE": "QVQLVESGGGLVQAGGSLRLICAASGSTFGWYAMGWYRQAPGQERELVAAISWGGGSTYYADSVKGRFTISRDNAKNTVYLQMNSLKPEVTAVYYCAKVPLTYSRSGYEYDYWGQGTQVTVSS", "polyreactivity (PSR sort gate)": "low polyreactivity"}
{"POLYMER_SEQUENCE": "QVQLVDSGGGLVQAGGSLRLSCADSGSIFGVYAMGWYRQATGKESELVAAISISDGITYYADSVKGRFTISRDNAKNNVYLQMNSLKPEDTAVYYCAAELSPYYYGESYDYWGQGTQVTVSS", "polyreactivity (PSR sort gate)": "high polyreactivity"}
{"POLYMER_SEQUENCE": "QVQLVESGGGLVQAGGSLRLSCAASGFIFGYNAMGWYRQAPGKERELVAAISYSGVSTYYADSVKGRFTISRDNAKNTVYLQMNSLKPEDTAVYYCAARPIGYKPRGEYDYWGQGTQVTVSS", "polyreactivity (PSR sort gate)": "high polyreactivity"}
{"POLYMER_SEQUENCE": "QVQLVESGGGLVQAGCSILLSCAASGRIFDNYAMGWSRQAPGKERELVAASRYSDDATDYADSVKGRFTISRDNAKNTVYLQMNSLIPEDPAVYYCAADVKRYGWEYGYWGQGTQVTVSS", "polyreactivity (PSR sort gate)": "low polyreactivity"}
{"POLYMER_SEQUENCE": "QVQLVESGGGLVQAGGSLRLSCAASGSIFEGNAMGWYRQAPGKERELVAAISTTGGITYYADSVKGRFTISRDNAKNTVFLQMNSLKPEDTAVYYCAADPSQPRIDSSNYDYWGQGTQVTLSS", "polyreactivity (PSR sort gate)": "low polyreactivity"}
{"POLYMER_SEQUENCE": "QVQLVESGGGLVQAGGSLRLSCAASGFTFYTNTMGWYRQAPGKERELVAVISRTGGSTYYADSVKGRFTISRDNANNTVYLQMKSLKPEDTAVYYCAKRGQWPYDYFIGNYWGQGSQVTVSS", "polyreactivity (PSR sort gate)": "high polyreactivity"}
{"POLYMER_SEQUENCE": "QVQLVESGGGLFQAGGSLRLSCAASGSIFDSYAMGWYRQAPGKDREVVAAISSDCGSTYYADSVKGRFTISRDNAKNTVYLQMNSLKPEDTAVYFCAVEDYSSPYDFDSWGQGTQVTVSS", "polyreactivity (PSR sort gate)": "low polyreactivity"}
{"POLYMER_SEQUENCE": "QVQLVESGGGLVQAGGSLRLSCAASGRIFYLNAMGWYRQAPGKERELVAGITNSTTGTYYADSVKGRFTISRDNAKNTVYLQMNCLKPEDTAVYYCITDVAYEEPVETYDYWGQGTQVTVSS", "polyreactivity (PSR sort gate)": "low polyreactivity"}
{"POLYMER_SEQUENCE": "QVQLVESGGGLVQAGGSLRLSCDASGSTFVGYTMGWYRQAPGKERELVAAITWRGGITYYADSVKGLFTISRDNAKNTVYLQMKSLKPEDTAVYYCAGARYRHGRSGTYDVTGEYWGQGTQVTVSS", "polyreactivity (PSR sort gate)": "high polyreactivity"}
{"POLYMER_SEQUENCE": "QVQLVESGGGLVQAGGSLRLSCAASGSIFYDNAMGWYRQAPGKERELVAAIRGRGGSTYYADSVKGRFTISRDNAKNTVYLQMNSLKPVDTAVYYCAAERPIAVVRYYTYYYWGQGTQVTVSS", "polyreactivity (PSR sort gate)": "high polyreactivity"}
